Ref: patent US9546179B2

biological target: receptor tyrosine kinase EGFR (Homo sapiens); construct: purchased Shanghai 3bio Technology Co., Ltd. Lot No. 4018780925; assay: Inhibitory effect on receptor tyrosine kinase EGFR (ELISA, Poly(Glu, Tyr)4:1, PY99 antibody); assay type: biochemical; conditions: ATP 4 μM, 1 hour at 37° C.
ENDPOINT_LABEL: IC50

Previously resolved entries follow.
C#Cc1cccc(Nc2ncnc3cc(OC)c(OCCCN4CCC5(CCN(C)C5)C4)cc23)c1 (centres unmarked) [Example 68] :: 0.01 to 0.1 µM
COc1cc2ncnc(Nc3ccc(F)c(Cl)c3)c2cc1OCCN1CCC2(CCNC2=O)C1 (centres unmarked) [Example 55] :: 0.1 to 1 µM
COc1cc2ncnc(Nc3ccc(F)c(Cl)c3)c2cc1OCCCN1CC2(CNC(=O)C2)C1 [Example 86] :: 0.01 to 0.1 µM
COc1cc2ncnc(Nc3ccc(F)c(Cl)c3)c2cc1OCCN1CC2CCC(C1)O2 [Example 11] :: 0.1 to 1 µM
COc1cc2ncnc(Nc3ccc(F)c(Cl)c3)c2cc1OCCCN1CC2CCC(C1)O2 [Example 93] :: 0.1 to 1 µM

(Q) Tell me the measured IC50 of COc1cc2ncnc(Nc3cc(Cl)ccc3F)c2cc1OCCCN1CC2(CNC(=O)C2)C1 [Example 27] , please.
(A) 0.01 to 0.1 µM

(Q) Tell me the measured IC50 of COc1cc2ncnc(Nc3ccc(F)c(Cl)c3)c2cc1OCCN1CCC2(CCOCC2)C1 [Example 10] , please.
(A) 0.01 to 0.1 µM

(Q) Tell me the measured IC50 of [2H]C([2H])([2H])Oc1cc2ncnc(Nc3ccc(F)c(Cl)c3)c2cc1OCCCN1CC2(C1)CN(C)C(=O)O2 [Example 98] , please.
(A) 0.0001 to 0.01 µM

###

# IC50 measurements, system: receptor tyrosine kinase EGFR (Homo sapiens, UniProt P00533)
# Sequence (P00533 25-1210): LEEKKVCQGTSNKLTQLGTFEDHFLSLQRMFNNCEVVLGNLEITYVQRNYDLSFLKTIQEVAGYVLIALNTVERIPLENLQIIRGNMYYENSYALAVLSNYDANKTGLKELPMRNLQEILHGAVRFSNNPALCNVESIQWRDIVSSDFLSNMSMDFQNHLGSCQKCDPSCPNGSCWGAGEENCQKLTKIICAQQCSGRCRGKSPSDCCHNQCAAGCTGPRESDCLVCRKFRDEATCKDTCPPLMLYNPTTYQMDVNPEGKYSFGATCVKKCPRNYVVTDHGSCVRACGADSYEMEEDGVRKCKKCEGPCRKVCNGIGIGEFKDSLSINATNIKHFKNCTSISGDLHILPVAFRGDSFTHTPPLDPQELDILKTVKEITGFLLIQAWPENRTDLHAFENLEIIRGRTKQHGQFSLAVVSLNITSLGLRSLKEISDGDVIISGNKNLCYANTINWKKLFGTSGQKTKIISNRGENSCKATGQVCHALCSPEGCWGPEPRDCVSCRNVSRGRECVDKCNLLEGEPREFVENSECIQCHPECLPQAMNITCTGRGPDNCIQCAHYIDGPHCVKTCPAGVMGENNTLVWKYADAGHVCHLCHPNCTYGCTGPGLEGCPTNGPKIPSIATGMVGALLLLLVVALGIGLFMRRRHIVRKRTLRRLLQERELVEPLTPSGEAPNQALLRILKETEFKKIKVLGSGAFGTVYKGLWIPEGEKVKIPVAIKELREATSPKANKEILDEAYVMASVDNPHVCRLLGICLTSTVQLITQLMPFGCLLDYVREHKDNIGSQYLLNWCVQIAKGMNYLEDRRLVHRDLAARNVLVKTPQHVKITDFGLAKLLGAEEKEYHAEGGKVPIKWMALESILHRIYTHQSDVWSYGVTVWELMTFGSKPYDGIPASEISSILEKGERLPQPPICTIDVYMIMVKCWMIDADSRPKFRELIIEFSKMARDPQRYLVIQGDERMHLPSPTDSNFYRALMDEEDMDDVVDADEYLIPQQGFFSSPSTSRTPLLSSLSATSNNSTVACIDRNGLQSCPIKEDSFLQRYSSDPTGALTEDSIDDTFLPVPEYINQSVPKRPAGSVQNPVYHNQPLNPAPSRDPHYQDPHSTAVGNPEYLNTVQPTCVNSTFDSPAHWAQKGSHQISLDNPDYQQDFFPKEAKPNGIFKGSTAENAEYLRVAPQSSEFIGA

Previously resolved entries follow.
C#Cc1cccc(Nc2ncnc3cc(OC)c(OCCCN4CCC5(CCC(=O)N5)CC4)cc23)c1 :: 10 to 100 nM
C#Cc1cccc(Nc2ncnc3cc(OC)c(OCCCN4CCC5(CC4)CC(=O)N(C)C5)cc23)c1 :: 10 to 100 nM
COc1cc2ncnc(Nc3cccc(Cl)c3F)c2cc1OCCCN1CCC2(COC2)C1 :: 10 to 100 nM
COc1cc2ncnc(Nc3ccc(F)c(Cl)c3)c2cc1OCCCN1CC2(CNC(=O)O2)C1 :: 0.1 to 10 nM
COc1cc2ncnc(Nc3ccc(F)c(Cl)c3)c2cc1OCCCN1CCC2(CC1)CC(=O)N(C)C2 :: 0.1 to 10 nM

(Q) Tell me the measured IC50 of COc1cc2ncnc(Nc3ccc(F)c(Cl)c3)c2cc1OCCCN1CC2(COC2)C1 , please.
(A) 10 to 100 nM

(Q) Tell me the measured IC50 of COc1cc2ncnc(Nc3ccc(F)c(Cl)c3)c2cc1OCCN1CC2(CNC(=O)O2)C1 , please.
(A) 100 to 1000 nM

###

# pIC50 measurements, system: receptor tyrosine kinase EGFR (Homo sapiens)
pIC50: −log10 of the molar value.

Previously resolved entries follow.
C#Cc1cccc(Nc2ncnc3cc(OC)c(OCCCN4CC[C@H]5OCC[C@H]54)cc23)c1 (relative stereo) :: 8.00 to 10.00
COc1cc2ncnc(Nc3ccc(F)c(Cl)c3)c2cc1OCCN1CCC2(CC1)CNC(=O)O2 :: 6.00 to 7.00
C#Cc1cccc(Nc2ncnc3cc(OC)c(OCCCN4CCC5(CCN(C(C)=O)C5)C4)cc23)c1 (centres unmarked) :: 8.00 to 10.00

(Q) What measured pIC50 is associated with COc1cc2ncnc(Nc3cc(Cl)ccc3F)c2cc1OCCCN1CCC2(CCNC2=O)C1 (centres unmarked) on receptor tyrosine kinase EGFR (Homo sapiens)?
(A) 7.00 to 8.00

(Q) What measured pIC50 is associated with COc1cc2ncnc(Nc3cc(Cl)ccc3F)c2cc1OCCCN1CCC2(CCC(=O)N2)CC1 on receptor tyrosine kinase EGFR (Homo sapiens)?
(A) 7.00 to 8.00

###

biological target: receptor tyrosine kinase EGFR (Homo sapiens, UniProt P00533)
The reader will find reported IC50 values listed item by item below.

C#Cc1cccc(Nc2ncnc3cc(OC)c(OCCCN4C5CCC4COC5)cc23)c1 :: 100 to 1000 nM
COc1cc2ncnc(Nc3ccc(F)c(Cl)c3)c2cc1OCCCN1CCC2(CC1)COC2 :: 10 to 100 nM
COc1cc2ncnc(Nc3cccc(Cl)c3F)c2cc1OCCCN1CC2(CNC(=O)O2)C1 :: 0.1 to 10 nM
COc1cc2ncnc(Nc3ccc(F)c(Cl)c3)c2cc1OCCN1CCC2(CC1)COC2 :: 10 to 100 nM
[2H]C([2H])([2H])Oc1cc2ncnc(Nc3ccc(F)c(Cl)c3)c2cc1OCCCN1CCC2(CC1)CNC(=O)O2 :: 10 to 100 nM

(Q) What measured IC50 is associated with COc1cc2ncnc(Nc3ccc(F)c(Cl)c3)c2cc1OCCN1CC2(C1)CN(C)C(=O)O2 on receptor tyrosine kinase EGFR (Homo sapiens, UniProt P00533)?
(A) 10 to 100 nM

(Q) What measured IC50 is associated with C#Cc1cccc(Nc2ncnc3cc(OC)c(OCCCN4CC5(COC5)C4)cc23)c1 on receptor tyrosine kinase EGFR (Homo sapiens, UniProt P00533)?
(A) 10 to 100 nM

###

The reader will find reported IC50 values listed item by item below.
target: receptor tyrosine kinase EGFR (Homo sapiens, UniProt P00533); construct: purchased Shanghai 3bio Technology Co., Ltd. Lot No. 4018780925; assay: Inhibitory effect on receptor tyrosine kinase EGFR (ELISA, Poly(Glu, Tyr)4:1, PY99 antibody); format: biochemical; conditions: ATP 4 μM, 1 hour at 37° C.

Previously resolved entries follow.
COc1cc2ncnc(Nc3ccc(F)c(Cl)c3)c2cc1OCCCN1CCC2(CCC(=O)N2)CC1 :: 10 to 100 nM
COc1cc2ncnc(Nc3ccc(F)c(Cl)c3)c2cc1OCCN1CCC2(CCOC2)C1 (stereo not drawn) :: 10 to 100 nM

Please examine the following record next.
(Q) Tell me the measured IC50 of COc1cc2ncnc(Nc3cc(Cl)ccc3F)c2cc1OCCCN1CCC2(CC1)CNC(=O)C2 , please.
(A) 10 to 100 nM
